test system: HCC1937 cells; assay: Cellular PARylation assay; assay type: cell-based; details: Homo sapiens; HCC1937 cells, compound 30 min then 1 mM H2O2 10 min; read-out: cellular PARylation EC50
pEC50: −log10 of the molar value.
metric: pEC50

| compound | result |
| --- | --- |
| CC(C)N1CCC(c2cnn3c2[nH]c2cc(F)cc(C(N)=O)c23)C1 (centres unmarked) [Example 22] | 7.00 to 9.00 |

Req: Field request: pEC50 | item: CC1(c2cnn3c2[nH]c2cc(F)cc(C(N)=O)c23)CCN(CC2(O)CC2)CC1 [Example 70]
Resp: 7.00 to 9.00

---

biological target: PARP-1 (Homo sapiens)
Sequence (P09874 whole entry): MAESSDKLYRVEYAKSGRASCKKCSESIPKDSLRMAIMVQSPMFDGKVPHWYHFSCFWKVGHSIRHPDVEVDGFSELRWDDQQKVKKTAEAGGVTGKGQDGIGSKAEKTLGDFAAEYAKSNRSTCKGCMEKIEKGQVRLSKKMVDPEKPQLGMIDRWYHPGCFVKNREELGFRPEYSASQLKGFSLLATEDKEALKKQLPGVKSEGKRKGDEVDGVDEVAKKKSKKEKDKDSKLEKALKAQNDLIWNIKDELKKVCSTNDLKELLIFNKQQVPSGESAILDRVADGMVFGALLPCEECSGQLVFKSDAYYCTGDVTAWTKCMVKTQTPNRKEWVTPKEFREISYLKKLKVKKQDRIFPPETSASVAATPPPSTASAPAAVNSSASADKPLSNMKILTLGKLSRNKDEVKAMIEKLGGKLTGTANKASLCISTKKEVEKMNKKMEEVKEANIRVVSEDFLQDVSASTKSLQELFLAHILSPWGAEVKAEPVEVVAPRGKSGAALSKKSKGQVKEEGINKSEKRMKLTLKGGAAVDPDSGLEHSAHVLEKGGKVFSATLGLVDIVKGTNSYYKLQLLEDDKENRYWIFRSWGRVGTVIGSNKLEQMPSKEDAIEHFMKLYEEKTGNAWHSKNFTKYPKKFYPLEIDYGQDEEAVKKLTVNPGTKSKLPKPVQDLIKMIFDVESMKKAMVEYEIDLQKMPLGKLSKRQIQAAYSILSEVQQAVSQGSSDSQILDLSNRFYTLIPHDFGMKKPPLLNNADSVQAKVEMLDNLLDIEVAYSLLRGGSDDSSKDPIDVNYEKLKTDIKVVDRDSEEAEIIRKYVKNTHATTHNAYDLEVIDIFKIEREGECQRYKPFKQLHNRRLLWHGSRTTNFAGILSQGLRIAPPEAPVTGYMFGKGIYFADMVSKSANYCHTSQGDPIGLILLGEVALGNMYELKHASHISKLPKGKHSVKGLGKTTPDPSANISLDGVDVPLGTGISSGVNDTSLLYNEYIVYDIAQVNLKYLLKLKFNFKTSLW
metric: IC50

Use these answered entries as a reference point.
| mol.smiles | metric | result |
| --- | --- | --- |
| CC1(c2cnn3c2[nH]c2cc(F)cc(C(N)=O)c23)CCN(S(C)(=O)=O)CC1 | IC50 | 1 to 100 nM |
| CCN1CCC(CN2CCC(C)(c3cnn4c3[nH]c3cc(F)cc(C(N)=O)c34)CC2)CC1 | IC50 | 1 to 100 nM |
| CC1(c2cnn3c2[nH]c2cc(F)cc(C(N)=O)c23)CCN(CCS(C)(=O)=O)CC1 | IC50 | 1 to 100 nM |

Req: Field request: IC50 | item: `COCCCN1CCC(C)(c2cnn3c2[nH]c2cc(F)cc(C(N)=O)c23)CC1`
Resp: 1 to 100 nM

Req: Field request: IC50 | item: `CC1(c2cnn3c2[nH]c2cc(F)cc(C(N)=O)c23)CCN(CCC#N)CC1`
Resp: 1 to 100 nM

---

Recorded pEC50 values for a group of compounds are listed next.
system: HCC1937 cells; assay: Cellular PARylation assay; assay type: cell-based; details: Homo sapiens; HCC1937 cells, compound 30 min then 1 mM H2O2 10 min; read-out: cellular PARylation EC50
pEC50: −log10 of the molar value.

Req: Form field: pEC50 recorded for `CCN1CCC(N2CCC(C)(c3cnn4c3[nH]c3cc(F)cc(C(N)=O)c34)CC2)CC1` with HCC1937 cells (enter value)
Resp: 7.00 to 9.00

Req: Form field: pEC50 recorded for `CNCc1ccc(F)c(-c2cnn3c2[nH]c2cc(F)cc(C(N)=O)c23)c1` with HCC1937 cells (enter value)
Resp: 6.00 to 7.00

---

target: PARP-1 (Homo sapiens)
metric: IC50

Use these answered entries as a reference point.
| compound | IC50 |
| --- | --- |
| CC1(c2cnn3c2[nH]c2cc(F)cc(C(N)=O)c23)CCN(C2COC2)C1 (centres unmarked) | 1 to 100 nM |
| Cc1nn2c([nH]c3cc(F)cc(C(N)=O)c32)c1C1(C)CCN(C)CC1 | 1 to 100 nM |
| COC(=O)C1(c2cnn3c2[nH]c2cc(F)cc(C(N)=O)c23)CCN(CC2CC2)CC1 | 1 to 100 nM |
| CC1(c2cnn3c2[nH]c2cc(F)cc(C(N)=O)c23)CCN(CC2(N)CC2)CC1 | 1 to 100 nM |
| NC(=O)c1cc(F)cc2[nH]c3c(C45CC4CN(C4CCC4)C5)cnn3c12 (centres unmarked) | 1 to 100 nM |
| CC1(c2cnn3c2[nH]c2cc(F)cc(C(N)=O)c23)CCN(CC2COC2)CC1 | 1 to 100 nM |
| CC(C)N1CC2CC2(c2cnn3c2[nH]c2cc(F)cc(C(N)=O)c23)C1 (centres unmarked) | 1 to 100 nM |

Moving on to another compound below.
Req: Field request: IC50 | item: `CC1(c2cnn3c2[nH]c2cc(F)cc(C(N)=O)c23)CCN(Cc2cccs2)CC1`
Resp: 1 to 100 nM

---

Recorded EC50 values for a group of molecules are listed next.
system: HCC1937 cells; assay: Cellular PARylation assay; type: cell-based; conditions: Homo sapiens; HCC1937 cells, compound 30 min then 1 mM H2O2 10 min; read-out: cellular PARylation EC50

Req: Field request: EC50 | item: `Cc1nn2c([nH]c3cc(F)cc(C(N)=O)c32)c1C1(C)CCN(CC(C)C)CC1`
Resp: 1 to 100 nM

Req: Field request: EC50 | item: `NC(=O)c1cc(F)cc2[nH]c3c(C4CCN(C5CC5)CC4)cnn3c12`
Resp: 1 to 100 nM

---

tested on: HCC1937 cells; assay: Cellular PARylation assay; format: cell-based; details: Homo sapiens; HCC1937 cells, compound 30 min then 1 mM H2O2 10 min; read-out: cellular PARylation EC50
pEC50: −log10 of the molar value.
metric: pEC50

Use these answered entries as a reference point.
| mol.smiles | pEC50 |
| --- | --- |
| CNCc1ccc(-c2cnn3c2[nH]c2cc(F)cc(C(N)=O)c23)c(F)c1 | 6.00 to 7.00 |
| CCN1CCC(C)(c2c(C)nn3c2[nH]c2cc(F)cc(C(N)=O)c23)CC1 | 7.00 to 9.00 |
| NC(=O)c1cc(F)cc2[nH]c3c(C4CCN(C5COC5)CC4)cnn3c12 | 6.00 to 7.00 |

Req: Field request: pEC50 | item: `CC1(c2cnn3c2[nH]c2cc(F)cc(C(N)=O)c23)CCN(CCC#N)CC1`
Resp: 7.00 to 9.00

Req: Field request: pEC50 | item: `CN(C)CCN1CCC(c2cnn3c2[nH]c2cc(F)cc(C(N)=O)c23)CC1`
Resp: 7.00 to 9.00

Req: Field request: pEC50 | item: `Cc1ncsc1CN1CCC(C)(c2cnn3c2[nH]c2cc(F)cc(C(N)=O)c23)CC1`
Resp: 7.00 to 9.00

---

Recorded EC50 values for a group of compounds are listed next.
tested on: HCC1937 cells; assay: Cellular PARylation assay; format: cell-based; settings: Homo sapiens; HCC1937 cells, compound 30 min then 1 mM H2O2 10 min; read-out: cellular PARylation EC50

Use these answered entries as a reference point.
| compound | tgt | EC50 |
| --- | --- | --- |
| CC1(c2cnn3c2[nH]c2cc(F)cc(C(N)=O)c23)CCN(CC2(N)CC2)C1 (stereo not drawn) | HCC1937 cells | 1 to 100 nM |
| Cn1ccnc1CN1CCC(C)(c2cnn3c2[nH]c2cc(F)cc(C(N)=O)c23)CC1 | HCC1937 cells | 1 to 100 nM |
| Cc1nn2c([nH]c3cc(F)cc(C(N)=O)c32)c1C1(C)CCN(C)CC1 | HCC1937 cells | 1 to 100 nM |
| CC(C)N1CCC(c2cnn3c2[nH]c2cc(F)cc(C(N)=O)c23)CC1 | HCC1937 cells | 1 to 100 nM |
| CCN1CC2CC2(c2cnn3c2[nH]c2cc(F)cc(C(N)=O)c23)C1 (stereo not drawn) | HCC1937 cells | 1 to 100 nM |
| NC(=O)c1cc(F)cc2[nH]c3c(C4CCN(C(=O)C5CC5)CC4)cnn3c12 | HCC1937 cells | 101 to 1000 nM |

Req: Field request: EC50 | item: `NC(=O)c1cc(F)cc2[nH]c3c(-c4ccncc4)cnn3c12`
Resp: > 1000 nM

Req: Field request: EC50 | item: `N#Cc1cnn2c1[nH]c1cccc(C(N)=O)c12`
Resp: > 1000 nM

Req: Field request: EC50 | item: CCN1C2CCC1CC(c1cnn3c1[nH]c1cc(F)cc(C(N)=O)c13)C2 (stereo not drawn)
Resp: 101 to 1000 nM

Req: Field request: EC50 | item: `NCCN1CCC(c2cnn3c2[nH]c2cc(F)cc(C(N)=O)c23)CC1`
Resp: 101 to 1000 nM

Req: Field request: EC50 | item: `CC1(c2cnn3c2[nH]c2cc(F)cc(C(N)=O)c23)CCN(CC2COC2)CC1`
Resp: 1 to 100 nM

Req: Field request: EC50 | item: CN1CCC(C)(c2cnn3c2[nH]c2cc(F)cc(C(N)=O)c23)C1 (stereo not drawn)
Resp: 1 to 100 nM

Req: Field request: EC50 | item: `CC1(c2cnn3c2[nH]c2cc(F)cc(C(N)=O)c23)CCN(Cc2nccs2)CC1`
Resp: 101 to 1000 nM

Req: Field request: EC50 | item: `CC1(c2cnn3c2[nH]c2cc(F)cc(C(N)=O)c23)CCN(CC2(S(C)(=O)=O)CC2)CC1`
Resp: 1 to 100 nM

Req: Field request: EC50 | item: `CC1(CN2CCC(C)(c3cnn4c3[nH]c3cc(F)cc(C(N)=O)c34)CC2)COC1`
Resp: 1 to 100 nM

Req: Field request: EC50 | item: CC1(c2cnn3c2[nH]c2cc(F)cc(C(N)=O)c23)CCN(CC2(C#N)CC2)C1 (stereo not drawn)
Resp: 101 to 1000 nM

Req: Field request: EC50 | item: `CN1CCC(c2cnn3c2[nH]c2cc(F)cc(C(N)=O)c23)CC1`
Resp: 1 to 100 nM

Req: Field request: EC50 | item: CN1CCCC1c1cnn2c1[nH]c1cc(F)cc(C(N)=O)c12 (stereo not drawn)
Resp: 1 to 100 nM

Req: Field request: EC50 | item: CN(C)C(=O)C1CC1CN1CCC(C)(c2cnn3c2[nH]c2cc(F)cc(C(N)=O)c23)CC1 (stereo not drawn)
Resp: 1 to 100 nM

Req: Field request: EC50 | item: `Cc1nn2c([nH]c3cc(F)cc(C(N)=O)c32)c1C1(C)CCN(CC(C)(C)O)CC1`
Resp: 1 to 100 nM

Req: Field request: EC50 | item: NC(=O)c1cccc2cn(-c3ccc([C@@H]4CCCNC4)cc3)nc12 [MK-4827, niraparib, reference compound]
Resp: 1 to 100 nM

Req: Field request: EC50 | item: `CC1(c2cnn3c2[nH]c2cc(F)cc(C(N)=O)c23)CCN(CCS(C)(=O)=O)CC1`
Resp: 1 to 100 nM

Req: Field request: EC50 | item: `N#Cc1cnn2c1[nH]c1cc(F)cc(C(N)=O)c12`
Resp: > 1000 nM

Req: Field request: EC50 | item: CN1CCCC(c2cnn3c2[nH]c2cc(F)cc(C(N)=O)c23)CC1 (stereo not drawn)
Resp: 1 to 100 nM

Req: Field request: EC50 | item: `NCc1cnn2c1[nH]c1cc(F)cc(C(N)=O)c12`
Resp: 101 to 1000 nM

Req: Field request: EC50 | item: NC(=O)c1cc(F)cc2[nH]c3c(C4CCCN4)cnn3c12 (stereo not drawn)
Resp: 1 to 100 nM

Req: Field request: EC50 | item: `CC1(c2cnn3c2[nH]c2cc(F)cc(C(N)=O)c23)CCN(Cc2cccs2)CC1`
Resp: 1 to 100 nM

Req: Field request: EC50 | item: `CC1(c2cnn3c2[nH]c2cc(F)cc(C(N)=O)c23)CCN(CC2CCOCC2)CC1`
Resp: 1 to 100 nM

Req: Field request: EC50 | item: `NC(=O)c1cc(F)cc2[nH]c3c(C4CCN(CCO)CC4)cnn3c12`
Resp: 1 to 100 nM
